Target: Tyrosine-protein kinase Tec (Homo sapiens) (UniProt P42680)
Sequence (whole entry): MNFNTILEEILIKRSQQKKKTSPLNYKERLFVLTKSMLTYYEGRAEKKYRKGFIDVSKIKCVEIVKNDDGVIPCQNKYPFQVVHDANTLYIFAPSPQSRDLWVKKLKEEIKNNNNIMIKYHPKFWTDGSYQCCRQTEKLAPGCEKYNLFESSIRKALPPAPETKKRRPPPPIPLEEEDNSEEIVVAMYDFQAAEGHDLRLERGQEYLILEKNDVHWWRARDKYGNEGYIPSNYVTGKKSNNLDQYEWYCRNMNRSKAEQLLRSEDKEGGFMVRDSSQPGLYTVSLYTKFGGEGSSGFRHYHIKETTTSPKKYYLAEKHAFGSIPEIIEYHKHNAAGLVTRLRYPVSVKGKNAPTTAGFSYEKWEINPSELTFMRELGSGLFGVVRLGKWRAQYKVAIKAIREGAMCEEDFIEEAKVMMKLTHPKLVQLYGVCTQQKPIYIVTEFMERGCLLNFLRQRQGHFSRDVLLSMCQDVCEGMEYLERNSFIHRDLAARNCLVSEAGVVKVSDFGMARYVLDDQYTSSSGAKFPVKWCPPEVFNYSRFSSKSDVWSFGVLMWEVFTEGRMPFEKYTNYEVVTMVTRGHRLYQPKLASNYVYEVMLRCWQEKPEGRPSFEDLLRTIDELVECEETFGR
Details: at 1 µM
quantityKind: residual activity

Sample records with residual activity:
{"compound": "c1ccc(-c2n[nH]cc2-c2ccnc3ccccc23)nc1", "residual activity": "88%"}
{"compound": "CCN(CC)C(=O)c1ccc(Nc2nc(OCC3CCCCC3)c3nc[nH]c3n2)cc1", "residual activity": "24%"}
{"compound": "CCN(CC)CCCCN1c2ccccc2Oc2ccc(Cl)cc21", "residual activity": "92%"}
{"compound": "Cn1cnc2cc3c(Nc4cccc(Br)c4)ncnc3cc21", "residual activity": "82%"}
{"compound": "CC[n+]1c(/C=C/N(C)c2ccccc2)n(-c2ccccc2)c2ccc(-c3nc4ccccc4s3)cc21", "residual activity": "77%"}

The record that follows has no residual activity shown yet.
The recorded residual activity for "Cc1ccc(NC2=CC(=O)c3sc(C)nc3C2=O)cc1" is 85%

The measurements presented in this section are drawn from ChEMBL document CHEMBL2218924.
